- targetDesc: c-Met (Homo sapiens)
- Sequence (P08581 1046-1390): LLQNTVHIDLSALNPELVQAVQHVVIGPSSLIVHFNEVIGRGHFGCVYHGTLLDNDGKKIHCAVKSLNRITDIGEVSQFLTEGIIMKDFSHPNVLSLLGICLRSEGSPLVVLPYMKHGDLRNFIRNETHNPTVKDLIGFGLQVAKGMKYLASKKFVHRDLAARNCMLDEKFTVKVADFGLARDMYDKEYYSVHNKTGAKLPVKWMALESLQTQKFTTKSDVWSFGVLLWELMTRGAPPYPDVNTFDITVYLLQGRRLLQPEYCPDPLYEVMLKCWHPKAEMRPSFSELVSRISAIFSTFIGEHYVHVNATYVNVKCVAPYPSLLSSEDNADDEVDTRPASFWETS
- experimentDescription: Fluorescence polarization assay on the kinase activity of c-Met
- Format: biochemical
- Set-up: The c-Met kinase domain consists amino acid 1046-1390 of the c-Met protein; made in house; host or cells: Sf9 insect cells with baculovirus
- runConditions: 6H-TEV-cMet, poly Gly4Tyr substrate, 10 μM ATP; read-out: c-Met FP Enz IC50
parameterMeasured: IC50 (µM)

* CN1CCN(CCCNC(=O)c2cc(Br)c3c(c2)NC(=O)/C3=N\NC(=O)Cc2ccc3c(c2)CCO3)CC1 [Example 5] | 0.013
* O=C(Cc1ccc2c(c1)CCO2)N/N=C1\C(=O)Nc2cc(C(=O)NCCN3CCOCC3)ccc21 [Example 3] | 0.024

1 = CN(C)CCNC(=O)c1cc(Br)c2c(c1)NC(=O)/C2=N\NC(=O)Cc1ccc2c(c1)CCO2 [Example 8]
2 = O=C(Cc1ccc2c(c1)CCO2)N/N=C1\C(=O)Nc2cc(C(=O)NCCN3CCOCC3)cc(Br)c21 [Example 6]
Query: Compare the recorded IC50 of 1 and 2 ; state which is larger. // respond with label for picked entry
Reply: 1
